Ref: ChEMBL document CHEMBL4390709

biological target: Peptidyl-prolyl cis-trans isomerase NIMA-interacting 1 (Homo sapiens, UniProt Q13526); assay: Inhibition of recombinant human Pin1 (Met1 to Glu163 residues) expressed in Escherichia coli using Suc-Ala-Glu-cis-Pro-Phe-4-nitroanilide as substrate preincubated for 30 mins followed by substrate addition and measured for 90 secs by protease-coupled assay
Sequence (Q13526 whole entry): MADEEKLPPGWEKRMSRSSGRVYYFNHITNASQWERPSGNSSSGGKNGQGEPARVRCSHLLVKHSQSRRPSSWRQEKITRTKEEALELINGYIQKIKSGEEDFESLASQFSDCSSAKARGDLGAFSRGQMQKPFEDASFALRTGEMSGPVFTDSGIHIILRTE
valueType: IC50 (µM)

compoundString: Cc1cc(OCCCn2c(-c3ccc(C(=O)O)cc3)nc3ccccc32)cc(C)c1Cl
outputUnit: µM
IC50: 0.47
--
compoundString: Cc1cc(OC(=O)CCn2c(-c3ccc(C(=O)O)cc3)nc3ccccc32)cc(C)c1Cl
outputUnit: µM
IC50: 0.72
--
compoundString: Cc1cccc(NC(=O)CCn2c(CCC(=O)O)nc3ccccc32)c1
outputUnit: µM
IC50: 7.56

P. O=C(O)CCc1nc2ccccc2n1CCC(=O)Nc1ccccc1
Q. CS(=O)(=O)NC(=O)c1ccc(-c2nc3ccccc3n2CCCOc2cccc3ccccc23)cc1
R. O=C(NS(=O)(=O)C(F)(F)F)c1ccc(-c2nc3ccccc3n2CCCOc2cccc3ccccc23)cc1
S. O=C(O)c1ccc(-c2nc3ccccc3n2CCC(=O)N(c2ccccc2)c2ccc3ccccc3c2)cc1
T. O=C(O)c1ccc(-c2nc3ccccc3n2CCC(=O)N(Cc2ccccc2)Cc2ccccc2)cc1
Ask | Ordering: ascending IC50. Quick reminder: the answer is the labels in the order asked.
Reply | S, R, T, Q, P
(S: 1.53 µM, R: 2.26 µM, T: 5.4 µM, Q: 7.83 µM, P: 19.7 µM)
